# Subject Of Test: AURKB (human)
# Assay Overview: radiometric filter-binding kinase assay
# Run Parameters: compound 1.0 µM; ATP 20 µM
Let's look at some molecules and their measured residual activity.
Report the value in % with no unit label.

Example entries and their recorded answers appear below.
>  <Molecule>
O=S(=O)(NCCNC/C=C/c1ccc(Br)cc1)c1cccc2cnccc12

>  <residual activity, %>
70

$$$$
>  <Molecule>
O=C1c2ccccc2-c2n[nH]c3cccc1c23

>  <residual activity, %>
15

$$$$

Ask | Recall the reported residual activity of CO[C@H]1CC2CC[C@@H](C)[C@@](O)(O2)C(=O)C(=O)N2CCCC[C@H]2C(=O)OC([C@H](C)C[C@@H]2CC[C@@H](O)[C@H](OC)C2)CC(=O)[C@H](C)/C=C(\C)[C@@H](O)[C@@H](OC)C(=O)[C@H](C)C[C@H](C)/C=C/C=C/C=C/1C (stereo partly specified) on AURKB (human) and write it down.
Reply | 86

Ask | Recall the reported residual activity of "COC[C@H]1OC(=O)c2coc3c2[C@@]1(C)C1=C(C3=O)[C@@H]2CCC(=O)[C@@]2(C)C[C@H]1OC(C)=O" on AURKB (human) and write it down.
Reply | 83

Ask | Recall the reported residual activity of "COc1ccc2c(c1)=NC1=C(C)NCCC=21" on AURKB (human) and write it down.
Reply | 90

Ask | Recall the reported residual activity of "CC(C)(N)c1ccc(-c2nc3ccccc3nc2-c2ccccc2)cc1" on AURKB (human) and write it down.
Reply | 82
